Test system: CCRIS mutagenicity, Ames/micronucleus/aberration tests
method: CCRIS mutagenicity studies
measurement-setup: Test System: AMES SALMONELLA TYPHIMURIUM; Strain/Indicator: TA97; Metabolic Activation: NONE; Method: STANDARD PLATE
Calls of active or inactive are those of the source. No rule for the calls is given here.
Lab note: assign the record to one of active, inactive

| molecule | group |
| --- | --- |
| Cc1ccccn1 | inactive |
| COC1=CC(=O)c2nc(C)c3c([nH]c4ccccc43)c2C1=O | active |
| O=P1(N(CCCl)CCCl)NCCCO1 (stereo not given) | inactive |
| CC(=O)c1cc2c(cc1C)C(C)(C)C(C)C2(C)C (stereo not given) | inactive |

Q: // param item: `Cc1ccc(N=NN(C)C)cc1` ; yields the recorded call
Result: active

Q: Recorded test call requested for `CC(=O)Nc1ccc(OC(=O)c2ccccc2OC(C)=O)cc1`
Result: inactive

====

Tested on: CCRIS mutagenicity, Ames/micronucleus/aberration tests
method: CCRIS mutagenicity studies
measurement-setup: Test System: AMES SALMONELLA TYPHIMURIUM; Strain/Indicator: TA98; Metabolic Activation: MOUSE, LIVER, S-9, AROCLOR 1254; Method: STANDARD PLATE
The source made the active and inactive calls. No rule for the calls is given here.
Field 'call' accepts active, inactive

| query-smiles | group |
| --- | --- |
| CCOc1ccc(NC(C)=O)cc1 | inactive |

Q: Check the results log: what was the call for `Nc1ccc2c(c1)C(=O)c1ccccc1C2=O` ?
Result: active

Q: Could you kindly confirm the outcome this assay logged for `CC1(C)COC1=O` ?
Result: inactive

Q: // outcome(item) with item = `Nc1ccccc1`
Result: inactive

====

System: CCRIS mutagenicity, Ames/micronucleus/aberration tests
method: CCRIS mutagenicity studies
measurement-setup: Test System: AMES SALMONELLA TYPHIMURIUM; Strain/Indicator: TA1537; Metabolic Activation: RAT LIVER S-9, PHENOBARBITAL AND BETA-NAPHTHOFLAVONE; Method: PREINCUBATION
Activity calls are given as the source filed them. The rule behind the calls is not given here.
Valid outcomes are listed here; reply with one: active, inactive

Example results:
| compound | assayed-target | group |
| --- | --- | --- |
| Cc1ccccc1S(N)(=O)=O | CCRIS mutagenicity, Ames/micronucleus/aberration tests | inactive |
| BrCCCCCBr | CCRIS mutagenicity, Ames/micronucleus/aberration tests | inactive |

Q: Please share the test call associated with `CCOC(=O)CC(C)=O` .
Result: inactive

Q: Could you please tell me the result logged for `Cc1ccc(Cl)cc1` in this assay?
Result: inactive

Q: Would you mind telling me which call this test gave `CC(C)c1ccccc1O` ?
Result: inactive

Q: Given `CCOCCOC(C)=O` , state the outcome it received in this test.
Result: inactive

====

Test system: CCRIS mutagenicity, Ames/micronucleus/aberration tests
method: CCRIS mutagenicity studies
measurement-setup: Test System: AMES SALMONELLA TYPHIMURIUM; Strain/Indicator: TA100; Metabolic Activation: S-9; Method: STANDARD PLATE
The source made the active and inactive calls. The rule behind the calls is not given here.
I would appreciate it if you answered using one of these outcomes: active, inactive

Please review the entries below; each comes with its answer.
| compound | assayed-target | group |
| --- | --- | --- |
| CCCC(=O)Nc1snc2ccccc12 | CCRIS mutagenicity, Ames/micronucleus/aberration tests | inactive |
| CNC(=O)c1c(N(C)N=O)ncn1C | CCRIS mutagenicity, Ames/micronucleus/aberration tests | inactive |
| CNc1ncn(C)c1C(=O)N(C)N=O | CCRIS mutagenicity, Ames/micronucleus/aberration tests | active |

Q: Could you kindly confirm the outcome this assay logged for `Cc1c(-c2ccccc2)oc2c(C(=O)OCCN3CCCCC3)cccc2c1=O` ?
Result: inactive

Q: Tell me the recorded outcome of this test for `O=C(N=c1sn(C(=O)c2ccc([N+](=O)[O-])cc2)c2ccc(Cl)cc12)c1ccc([N+](=O)[O-])cc1` .
Result: active
